Values compiled from patent US20250243282A1.

# measured.target: Recombinant human Gal3 (rhGal3) (TrueBinding, #QC200361) (human, UniProt P17931 2-250); also: test concentration or dose not given here
# protocol.details: cell-based or functional assay
attribute.measured: % inhibition of IL-6 secretion (%)
Kindly answer with a numeric value in %, unit omitted.

| binder | % inhibition of IL-6 secretion / % |
| --- | --- |
| 9H2.2H10 (antibody, human IgG4 S228P, kappa, V domains shown) VH: QVQLQQPGAELVGPGSSVKLSCKASGYTFTNYWIHWVKQRPLQGLEWIGNIDPSDSETHYNQKFKDKATLTVDKSSSTAYMQLSSLTSEDSAVYYCARHGYYDYWGQGTTLTVSS VL: DIVMTQSHKFMSTSVGDRVSITCKASQDVSTAVAWYQQKPGQSPKLLIYWASTRHTGVPDRFTGSGSGTDYTLTISSVQAEDLALYYCQQHYTTPLTFGAGTKLELKR | -99.1 |

We now examine a further binder.
query: Report % inhibition of IL-6 secretion for 846.2B11 (antibody, human IgG4 S228P, kappa, V domains shown) VH: QVQLQQSGPELVRPGALVKISCKASGYTFTSYDINWVKQRPGQGLEWIGWIYPGDGSTKYNEKFKGKATLTADKSSSTAYMQLSSLTSENSAVYFCAREAASNAMDYWGQGTSVTVSS VL: DIVLTQSPASLGVSLGQRATISCRASKSVSTSGYSYMHWYQQKPGQPPKLLIYLASILESGVPARFSGSGSGTDFTLNIHPVEEEDAAIYYCQHSRELPLTFGAGTKLELKR please.
result: -0.5
